Data provenance is patent US20130230459A1.

Listed molecules paired with reported SUV Cortex
assay.protocol: Biodistribution studies of 11C tracers
Type: in vivo, Wistar rats
assay.setup: 30 min p.i., normalized for body weight
endpoint: SUV Cortex

[11CH3]Oc1c(F)ccc(F)c1C1CCN(c2ccn3c(CC4CC4)nnc3c2Cl)CC1 [[^11C]B-2]; 1.77
[11CH3]Oc1ccc(F)cc1C1CCN(c2ccn3c(CC4CC4)nnc3c2Cl)CC1 [[^11C]B-4]; 1.87
[11CH3]Oc1c(F)ccc(F)c1C1CCN(c2ccn3c(CC4CC4)nnc3c2C(F)(F)F)CC1 [[^11C]B-3]; 1.00

* * *

assay.protocol: Biodistribution studies of 11C tracers
Type: in vivo, Wistar rats
assay.setup: 60 min p.i.
endpoint: % ID Kidneys (% ID)

[11CH3]Oc1ccc(F)c(F)c1C1CCN(c2ccn3c(CC4CC4)nnc3c2Cl)CC1 [[^11C]B-10]; 2.6
[11CH3]Oc1cc(F)cc(F)c1C1CCN(c2ccn3c(CC4CC4)nnc3c2Cl)CC1 [[^11C]B-7]; 2.0
[11CH3]Oc1c(F)ccc(F)c1C1CCN(c2ccn3c(CC4CC4)nnc3c2Cl)CC1 [[^11C]B-2]; 2.1
[11CH3]Oc1cccc(F)c1C1CCN(c2ccn3c(CC4CC4)nnc3c2Cl)CC1 [[^11C]B-6]; 1.9
[11CH3]Oc1c(F)ccc(F)c1C1CCN(c2ccn3c(CC4CC4)nnc3c2C(F)(F)F)CC1 [[^11C]B-3]; 2.4
